- Substrate: C[C@H](O)[C@H](N)C(=O)O
- method: purified protein
- Type: biochemical, Escherichia coli
- conditionNotes: 20 mM potassium phosphate, pH 7.0, 30 °C, retro-aldol cleavage
Collected kcat values appear next to each entry.
# number only, unit s⁻¹ dropped from output

Take a look at these entries with their results.
{"columns": ["protein", "unitLabel", "kcat"],
 "data": [
  ["low-specificity Escherichia coli L-threonine aldolase (eTA) (Escherichia coli K-12; H126N) (protein) MIDLRSDTVTRPSRAMLEAMMAAPVGDDVYGDDPTVNALQDYAAELSGKEAAIFLPTGTQANLVALLSHCERGEEYIVGQAAHNYLFEAGGAAVLGSIQPQPIDAAADGTLPLDKVAMKIKPDDINFARTKLLSLENTHNGKVLPREYLKEAWEFTRERNLALHVDGARIFNAVVAYGCELKEITQYCDSFTICLSKGLGTPVGSLLVGNRDYIKRAIRWRKMTGGGMRQSGILAAAGIYALKNNVARLQEDHDNAAWMAEQLREAGADVMRQDTNMLFVRVGEENAAALGEYMKARNVLINASPIVRLVTHLDVSREQLAEVAAHWRAFLAR", "s⁻¹", 7.82],
  ["low-specificity Escherichia coli L-threonine aldolase (eTA) (Escherichia coli K-12; K222A) (protein) MIDLRSDTVTRPSRAMLEAMMAAPVGDDVYGDDPTVNALQDYAAELSGKEAAIFLPTGTQANLVALLSHCERGEEYIVGQAAHNYLFEAGGAAVLGSIQPQPIDAAADGTLPLDKVAMKIKPDDIHFARTKLLSLENTHNGKVLPREYLKEAWEFTRERNLALHVDGARIFNAVVAYGCELKEITQYCDSFTICLSKGLGTPVGSLLVGNRDYIKRAIRWRAMTGGGMRQSGILAAAGIYALKNNVARLQEDHDNAAWMAEQLREAGADVMRQDTNMLFVRVGEENAAALGEYMKARNVLINASPIVRLVTHLDVSREQLAEVAAHWRAFLAR", "s⁻¹", 1.33],
  ["low-specificity Escherichia coli L-threonine aldolase (eTA) (Escherichia coli K-12; H126F) (protein) MIDLRSDTVTRPSRAMLEAMMAAPVGDDVYGDDPTVNALQDYAAELSGKEAAIFLPTGTQANLVALLSHCERGEEYIVGQAAHNYLFEAGGAAVLGSIQPQPIDAAADGTLPLDKVAMKIKPDDIFFARTKLLSLENTHNGKVLPREYLKEAWEFTRERNLALHVDGARIFNAVVAYGCELKEITQYCDSFTICLSKGLGTPVGSLLVGNRDYIKRAIRWRKMTGGGMRQSGILAAAGIYALKNNVARLQEDHDNAAWMAEQLREAGADVMRQDTNMLFVRVGEENAAALGEYMKARNVLINASPIVRLVTHLDVSREQLAEVAAHWRAFLAR", "s⁻¹", 9.02]
]}

Please report the measured kcat for low-specificity Escherichia coli L-threonine aldolase (eTA) (Escherichia coli K-12) (protein) MIDLRSDTVTRPSRAMLEAMMAAPVGDDVYGDDPTVNALQDYAAELSGKEAAIFLPTGTQANLVALLSHCERGEEYIVGQAAHNYLFEAGGAAVLGSIQPQPIDAAADGTLPLDKVAMKIKPDDIHFARTKLLSLENTHNGKVLPREYLKEAWEFTRERNLALHVDGARIFNAVVAYGCELKEITQYCDSFTICLSKGLGTPVGSLLVGNRDYIKRAIRWRKMTGGGMRQSGILAAAGIYALKNNVARLQEDHDNAAWMAEQLREAGADVMRQDTNMLFVRVGEENAAALGEYMKARNVLINASPIVRLVTHLDVSREQLAEVAAHWRAFLAR
3.55

Please report the measured kcat for low-specificity Escherichia coli L-threonine aldolase (eTA) (Escherichia coli K-12; F87A) (protein) MIDLRSDTVTRPSRAMLEAMMAAPVGDDVYGDDPTVNALQDYAAELSGKEAAIFLPTGTQANLVALLSHCERGEEYIVGQAAHNYLAEAGGAAVLGSIQPQPIDAAADGTLPLDKVAMKIKPDDIHFARTKLLSLENTHNGKVLPREYLKEAWEFTRERNLALHVDGARIFNAVVAYGCELKEITQYCDSFTICLSKGLGTPVGSLLVGNRDYIKRAIRWRKMTGGGMRQSGILAAAGIYALKNNVARLQEDHDNAAWMAEQLREAGADVMRQDTNMLFVRVGEENAAALGEYMKARNVLINASPIVRLVTHLDVSREQLAEVAAHWRAFLAR
2.67

This collection of values is drawn from paper PMC4366684.
